Experiment: NCI Yeast Anticancer Drug Screen. Data for the cln2 rad14 strain (AID 165);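 note: 0% = growth equal to vehicle treated cultures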
Conditions: S. cerevisiae cln2 rad14 strain, at 50.0 µM, stronger effect = higher value
Compounds without any hit were thinned out: in the full panel of roughly 79,000, 15% have a hit.
// values below are reported growth inhibition
Field: numeric (%). Do not append units.

>>> print(df.to_string())
                                   molecule  recorded_endpoint  measured
0  CCCOc1cc2c(cc1C(C)c1ccc(OCC)cc1)OCO2 (stereo not drawn)  growth inhibition       0.9
1              CCOC(=O)c1c(NC(=O)CCl)ssc1=S  growth inhibition      22.8

Complete the entry with growth inhibition for `ONc1ncnc2nc[nH]c12` -1.65

State its growth inhibition: `CC1(C)S[C@H](c2ccccc2C(=O)O)N[C@@H]1CC(=O)O` -21.7

Read off the recorded growth inhibition for `CCOC(=O)C(C(=O)OCC)n1c(=O)c2c(ncn2C)n(C)c1=O` 16.1

Fill in reported growth inhibition for this entry: CCN(CC)CCCC(C)Nc1c2cc(OC)cc(C)c2nc2c(C)c(Cl)ccc12 (stereo not drawn) 19.2

Return the recorded growth inhibition value; entry: CCOC(=O)C1CN(C)C(=O)C1=O (stereo not drawn) 2.35

Answer with the recorded growth inhibition of `CC1(C)CC([NH-])(C(=O)O)CC(C)(C)N1O.CC1(C)CC([NH-])(C(=O)O)CC(C)(C)N1O.[Pt+2]` only. -45.6

---

Measured growth inhibition, listed per entry for reference.
Assay: NCI Yeast Anticancer Drug Screen. Data for the cln2 rad14 strain (AID 165);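 note: 0% = growth equal to vehicle treated cultures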
Settings: S. cerevisiae cln2 rad14 strain, at 50.0 µM, stronger effect = higher value
This is part of a sample that, as a whole, favours compounds with a hit. Of some 79,000 tested, about 15% had one in any assay. The source made the active and inactive calls. Rule as the data show it: active = growth inhibition above about 70%; inactive = the rest.

Consider the reported growth inhibition for these molecules:
                                   molecule  recorded_endpoint           measured
0  CCOC(=O)CCN(CC1CC=CCC1)c1cc(O)c2c(c1O)C(=O)c1ccccc1C2=O (stereo unspecified)  growth inhibition  -2.55% (inactive)
1                     COC(=O)c1cc(C)ncc1C#N  growth inhibition    0.3% (inactive)
2  CC(CO)CCNc1ncnc2c1ncn2CCC(=O)OC(C)(C)C (stereo unspecified)  growth inhibition  -20.6% (inactive)
3  Cc1cc(OCCOc2ccc(N)cc2)ccc1N1C(N)=NC(N)=NC1(C)C  growth inhibition     83.2% (active)
4       COc1n[n+]([O-])c(OC)cc1[N+](=O)[O-]  growth inhibition     15% (inactive)

Pending molecule:
Please report the measured growth inhibition for `O=c1[nH]c2ccccc2c(O)c1-c1ccccc1` -8.6% (inactive)

---

Assay: NCI Yeast Anticancer Drug Screen. Data for the cln2 rad14 strain (AID 165);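 note: 0% = growth equal to vehicle treated cultures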
Conditions: S. cerevisiae cln2 rad14 strain, at 50.0 µM, stronger effect = higher value
This is part of a sample that, as a whole, favours compounds with a hit. Of some 79,000 tested, about 15% had one in any assay. Activity calls are given as the source filed them. Rule as the data show it: active = growth inhibition above about 70%; inactive = the rest.
recorded endpoint: growth inhibition

Worked examples, 3 compounds total:
In [3]: df
Out[3]:
                                   compound  recorded_endpoint           measured
0            OCCN(CCO)C(Cc1ccccc1)Cc1ccccc1  growth inhibition  -11.1% (inactive)
1                       N#CCCC1C(=O)CCCC1=O  growth inhibition  -13.6% (inactive)
2  COc1ccc(Br)cc1C1SCC(=O)N1c1nncs1 (stereo not drawn)  growth inhibition   11.2% (inactive)

Answer with the recorded growth inhibition for the compound listed here: CC(NC(=O)C(=O)c1ccccc1)c1ccccc1 (stereo not drawn) 20.1% (inactive)

Report measured growth inhibition; entry is O=C1/C(=C/c2ccc3c(c2)OCO3)CCC1CN1CCOCC1 (stereo not drawn) 92.7% (active)

Give recorded growth inhibition. CC1CN(c2ccc(Cl)cc2)CC(C)(C)OC(=O)O1 (stereo not drawn) 0.2% (inactive)

In one line, give reported growth inhibition of the entry `O=NNc1ccc(SSc2ccc(NN=O)cc2)cc1` . 44.9% (inactive)

Give a short answer stating reported growth inhibition for `CC1(C)CC(=O)C(CC2=C(N)CC(C)(C)CC2=O)=C(N)C1` . -13.3% (inactive)

Return growth inhibition (reported value) for this compound: CCCCCCCCCCC(CO)CCCCCCCC (stereo not drawn) -1.55% (inactive)

---

Experiment: NCI Yeast Anticancer Drug Screen. Data for the rad50 strain (AID 155);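 note: 0% = growth of vehicle-only cultures of the same strain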
Conditions: S. cerevisiae rad50 strain growth inhibition; at 50.0 µM; stronger effect = higher value
The panel holds about 79,000 compounds, 15% with a hit somewhere; the sample as a whole holds those more often.
Listing of recorded growth inhibition by entry.
Expressed in %, but write only the number.

The examples below pair each entry with its known result.
>>> df
                                   compound  value_unit  measured
0  NC(=O)CN1CC(C2=C(O)CN(CC(N)=O)C2=O)=CC1=O           %     -23.9
1         C[N+](C)(C)CCCc1ccc2oc3ccccc3c2c1           %      21.8
2             O=c1c2ccccc2[nH]c2ccc(Cl)cc12           %      47.6
3  CC(=O)OC1CCC2(C)C(CCC3C2CCC2(C)C(c4cccc(=O)o4)CCC32)C1 (stereo not given)           %      22.5
4  O=C(Nc1ccccc1[N+](=O)[O-])C(=O)C(C(=O)c1ccccc1-c1ccccc1)C1OC(=O)c2ccccc21 (stereo not given)           %      10.9

# return recorded growth inhibition for input COc1cc2c3c(c1OC)-c1cc4c(cc1CC3(C#N)N(C(=O)c1ccccc1)CC2)OCO4 (stereo not given) 3.5

Query growth inhibition for `Nc1nc(-c2ccccc2)nc2nc3[nH]c(=O)[nH]c(=O)c3nc12` -12.3

Look up growth inhibition of CCOC(=O)C(=O)C(C(=O)c1ccccn1)c1nc2n(c1O)C(=N)N=N2 (stereo not given) and report it. -4.1

Specify reported growth inhibition for the compound shown: `COC(=O)C(=O)C(/C=N/C(=S)NC1CCCCC1)=C(\O)c1ccc(F)cc1` -32.3

Note growth inhibition for the compound shown: `CN(C)C(=O)c1cccc(C2CCCCC2)c1O` -10.8

---

Listing of entries alongside the reported growth inhibition.
Test: NCI Yeast Anticancer Drug Screen. Data for the rad50 strain (AID 155);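 note: 0% = growth of vehicle-only cultures of the same strain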
Details: S. cerevisiae rad50 strain growth inhibition; at 50.0 µM; stronger effect = higher value
Compounds without any hit were thinned out: in the full panel of roughly 79,000, 15% have a hit.
Entry rule: numbers only, all in %.

In [3]: df
Out[3]:
                                   compound  measured
0              O=C(Oc1cccc2ccccc12)c1ccccc1     -10.4
1  COC(=O)[C@@]12CN(C)[C@@H](C(C)(C)C)N1C(=O)OC2c1ccccc1 (stereo partly specified)      24.4

# evaluate next
Quick one: give measured growth inhibition for CC(=O)OC(C)/C=C\C#N (stereo unspecified) -17.9

---

Assay: NCI Yeast Anticancer Drug Screen. Data for the sgs1 mgt1 strain (AID 161);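 note: 0% = growth of cultures given vehicle only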
Conditions: S. cerevisiae sgs1 mgt1 strain, at 50.0 µM
Compounds without any hit were thinned out: in the full panel of roughly 79,000, 15% have a hit. The source made the active and inactive calls. Cut-off read from the data, not from the text of the source: active = growth inhibition above about 70%; inactive = the rest.
Reply using exactly one outcome from YES (active), NO (inactive)

Recorded test outcome, item `Nc1nnc(-c2ccc(-c3nnc(N)o3)cc2)o1` NO

---

Experiment: NCI Yeast Anticancer Drug Screen. Data for the cln2 rad14 strain (AID 165);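 note: 0% = growth equal to vehicle treated cultures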
Conditions: S. cerevisiae cln2 rad14 strain, at 50.0 µM, stronger effect = higher value
The panel holds about 79,000 compounds, 15% with a hit somewhere; the sample as a whole holds those more often.
recorded endpoint: growth inhibition (%)
Field: numeric (%). Do not append units.

In [3]: df
Out[3]:
                                   molecule  recorded_endpoint  value_unit  measured
0  CCc1cc(Cc2cc(CC)c(NC(=O)C(=O)CC(=O)c3sc(-c4cccnc4)nc3C)c(CC)c2)cc(CC)c1NC(=O)C(=O)CC(=O)c1sc(-c2cccnc2)nc1C  growth inhibition           %     -0.05
1  CCOC(=O)NN1C(=O)C(=P(c2ccccc2)(c2ccccc2)c2ccccc2)C(C(=O)OC)=C1C  growth inhibition           %      11.8
2  Cc1ccc2c(c1)SC(c1cc3c(cc1Br)OCO3)S2 (centres undefined)  growth inhibition           %      34.9
3  CCC(=O)C12OC3OC(C)(C)OC3C1OC(C)(C)O2 (centres undefined)  growth inhibition           %      25.1
4                      N/N=C(/Cc1ccccc1)NNO  growth inhibition           %      22.4

Note down growth inhibition recorded for `CO/C=C(/C#N)S(=O)(=O)/C(C#N)=C/OC` 4.65

Query growth inhibition for CC(CN1CCCCC1)SSC(C)CN1CCCCC1 (centres undefined) -29.1

Determine from records and report growth inhibition for `O=C(CCC(CCC(=O)c1ccccc1)[N+](=O)[O-])c1ccccc1` 4.55

Give the value of growth inhibition reported for the following: `NCCn1ccnc1` -19.8

Recall and state the measured growth inhibition for `COc1c(O)c(O)c2c(c1O)C(=O)c1cc(C)cc(O)c1C2=O` . -8.45

Report growth inhibition, nothing else, for this molecule: `O=[N+]([O-])c1cccc(C(O)(C(F)(F)F)C(F)(F)F)c1` 24.1

Kindly indicate its recorded growth inhibition. Item: `COC(=O)c1ccccc1C#CC#Cc1ccccc1C(=O)OC` 8.85

Please indicate growth inhibition recorded for `CCOC(=O)SC1=NC(C)=CC(C)(C)S1` -10.9

// Input: `NC(=O)C(Cl)=C(Cl)Cl` . Output its growth inhibition only. -4.75

For the molecule `CCN(CC)C(=O)Cn1c2c(c3ccccc31)CCCC2` , report growth inhibition. 1.15

Provide one value: measured growth inhibition of `O=C(N=Nc1c(O)[nH]c2ccc(Br)cc12)c1ccncc1` 3.2

Annotate the molecule `CC(C)Oc1ccc(CCOC(=O)Nc2cccc3ccccc23)cc1` with its measured growth inhibition. 6.65

Look up growth inhibition of `CN(C)CCOC(=O)c1ccc(N)cc1` and report it. -19.6

Source: PubChem BioAssay (NCI)
